# Tested on: K4 kissing-loop RNA reporter;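 further: bound reporter read as fluorescence of individual clusters on recovered sequencing chips by microscopy, with normalized cluster intensities fitted with a binding model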
# test_method_notes: apparent KD of K4 kissing-loop reporter; higher = weaker reporter binding
# stated_conditions: Eterna round: R107; input ligand: FMN 200 uM
value_type: apparent KD of K4 kissing-loop reporter (µM)
Answers are plain numbers, in µM.

Would you please look over these solved cases?
record_sequence: AAGUGUGUGGCGGCCGCCACUAGUAUCCAGUGAUGUUGGAGAUAUCACGUAAGUGAUAUCCAACAUAGGACCGGGCCAUAUAGAA [Same State - Tryptophan B (Freestyle 17)]
apparent KD of K4 kissing-loop reporter (µM): 0.145

record_sequence: CGUUUAUAGCAGGAUACCAGUACCCAUAAAGUACGUUAAUAGUAGAGUGAUGUUCUAAAGUACCCUUGGCAGCUUCGAGUGAGUG [ExTheophylB.R]
apparent KD of K4 kissing-loop reporter (µM): 0.0725

record_sequence: GGUGUUGUUUGUGCCGCCUUCCUCGUUCCUCGAGGACCGGUACGGCCGCCACUCGAGUGAUGUUUGGGUAGCGAUCCCUGCUAGU [Bdazzled - #12 Exc. Tryptophan A]
apparent KD of K4 kissing-loop reporter (µM): 0.877

record_sequence: UUCGAUCAGUGAUGUUGAUCAAUAGUCGAAGGAGCGCUAUAGAUAGCAGGUAGGUCGCGACUACAAGGUGUUAAGACACCUCGAA [Arg A SS t9]
apparent KD of K4 kissing-loop reporter (µM): 0.505

record_sequence: UCACAGUCCAAAGGAUAUUGAGUGCGCGUGCGAUUUAAGCUGAAGCCGUAGCUAGUGAUGUUAGCCCAAGAAGGUUGGUAGCCAG [theeternabot_exclusion_KL_FMN_B_16]
apparent KD of K4 kissing-loop reporter (µM): 0.136

// assay K4 kissing-loop RNA reporter, entry CACUCGGUAUCAGAUACCAGACUAUCGAUACCGAGUGUAUCGGGUAGUGAUGUUACCAUAGUCCCUUGGCAGCUGAUAUUGCAUA [Theo B SS t9b] , apparent KD of K4 kissing-loop reporter value = 0.0733

This collection of values is drawn from the supplement of paper PMC9170038.
